Entries annotated with measured relative viability
System: SK-ES-1
Test Method Notes: relative viability vs DMSO control (72 h) (fraction); higher = more viable cells
Test Context: 0.04115 µM
Metric: relative viability

compound=NC(=O)c1cccc2cn(-c3ccc([C@@H]4CCCNC4)cc3)nc12 subject_of_test=SK-ES-1 endpoint_result=0.975
compound=Cc1c(F)cc(C(=O)NC2CC2)cc1-c1ccc(C(=O)NCC(C)(C)C)cn1 subject_of_test=SK-ES-1 endpoint_result=1.02
compound=CCN(c1cc(-c2ccc(CN3CCOCC3)cc2)cc(C(=O)NCc2c(C)cc(C)[nH]c2=O)c1C)C1CCOCC1 subject_of_test=SK-ES-1 endpoint_result=1.03
compound="COc1cc2nccc(Oc3ccc(NC(=O)C4(C(=O)Nc5ccc(F)cc5)CC4)cc3)c2cc1OC [Cabozantinib]" subject_of_test=SK-ES-1 endpoint_result=0.992
compound=CCCCCCCCCCCCCCCCCCOP(=O)([O-])OC1CC[N+](C)(C)CC1 subject_of_test=SK-ES-1 endpoint_result=0.951
compound=N#Cc1ccnc(N2C(=O)CC[C@H]2C(=O)N(c2cncc(F)c2)[C@H](C(=O)NC2CC(F)(F)C2)c2ccccc2Cl)c1 subject_of_test=SK-ES-1 endpoint_result=1.01
compound=COc1cc(Nc2c(C#N)cnc3cc(OCCCN4CCN(C)CC4)c(OC)cc23)c(Cl)cc1Cl subject_of_test=SK-ES-1 endpoint_result=1.02
compound=COc1cc(OC)cc(N(CCNC(C)C)c2ccc3ncc(-c4cnn(C)c4)nc3c2)c1 subject_of_test=SK-ES-1 endpoint_result=0.876
compound=C=CC(=O)Nc1cc(Nc2nccc(-c3cn(C)c4ccccc34)n2)c(OC)cc1N(C)CCN(C)C subject_of_test=SK-ES-1 endpoint_result=1.03
compound=COc1cc2c(Oc3ccc4[nH]c(C)cc4c3F)ccnc2cc1OCC1(N)CC1 subject_of_test=SK-ES-1 endpoint_result=1.09
compound=CNC(=O)c1cc(Oc2ccc(NC(=O)Nc3ccc(Cl)c(C(F)(F)F)c3)cc2)ccn1 subject_of_test=SK-ES-1 endpoint_result=1.01
compound=C[C@@H](Oc1cc(-c2cnn(C3CCNCC3)c2)cnc1N)c1c(Cl)ccc(F)c1Cl subject_of_test=SK-ES-1 endpoint_result=1.03
compound=CCCS(=O)(=O)N[C@H]1C[C@@H](N(C)c2ncnc3[nH]ccc23)C1 subject_of_test=SK-ES-1 endpoint_result=1.02
compound=CN1CCN(CCOc2cc(OC3CCOCC3)c3c(Nc4c(Cl)ccc5c4OCO5)ncnc3c2)CC1 subject_of_test=SK-ES-1 endpoint_result=1.01

====

Entries annotated with measured relative viability
Test system: RD
Test Method Notes: relative viability vs DMSO control (72 h) (fraction); higher = more viable cells
Test Context: 0.00017 µM
Metric: relative viability

compound="C#Cc1cccc(Nc2ncnc3cc(OCCOC)c(OCCOC)cc23)c1 [Erlotinib]" endpoint_result=1.08
compound="Cc1ccc(C(=O)OCc2ccc([C@@H](CN)C(=O)Nc3ccc4cnccc4c3)cc2)c(C)c1 [Netarsudil]" endpoint_result=1.09
compound="NC(=O)c1cnc2[nH]ccc2c1N[C@@H]1[C@@H]2CC3C[C@H]1C[C@@](O)(C3)C2 [Peficitinib]" endpoint_result=1.03
compound="CCCCCCCCCCCCCCCCCCOP(=O)([O-])OC1CC[N+](C)(C)CC1 [Perifosine]" endpoint_result=1.05
compound="CCN(c1cc(-c2ccc(CN3CCOCC3)cc2)cc(C(=O)NCc2c(C)cc(C)[nH]c2=O)c1C)C1CCOCC1 [Tazemetostat]" endpoint_result=0.988
compound="C1=N/C2=N/c3ccc(OCCN4CCCC4)c(c3)COC/C=C/COCc3cccc(c3)C(=C1)N2 [Pacritinib]" endpoint_result=1.08
compound="COc1cc2ncnc(Nc3ccc(F)c(Cl)c3)c2cc1NC(=O)/C=C/CN1CCCCC1 [Dacomitinib]" endpoint_result=1.1
compound="COc1cc2c(Oc3ccc4[nH]c(C)cc4c3F)ccnc2cc1OCC1(N)CC1 [Anlotinib]" endpoint_result=1.06
compound="Cc1cccc(-c2[nH]c(CNc3ccccc3F)nc2-c2ccc3ncnn3c2)n1 [Vactosertib]" endpoint_result=1.07

Origin of the recorded values: the supplement of paper PMC10883282
